# experimental-target: Polyunsaturated fatty acid lipoxygenase ALOX12 (Homo sapiens)
# method-summary: Primary qHTS assay for inhibitors of human arachidonate 12S-lipoxygenase (ALOX12): Round 2
# particulars: purified 12hLO, xylenol orange hydroperoxide absorbance; series mostly up to 108 µM
Screen size: about 580,000 compounds; about 6,100 (1.1%) were called active. About 15% were inconclusive and are not listed. The call rests on the fitted dose curve; in most records, active means well fitted inhibition curve with a large enough effect; inconclusive means small, poorly fitted or top-dose-only effect, or another doubt; inactive means no such curve, though single readings can be large or run the other way. Shown is part of a subset that was picked to be rich in actives.
Please answer using one outcome listed in yes (1) = active, no (0) = inactive

Reference set (8 entries):
CC(C)c1nnc(CN2CCOc3c(O)cc(-c4cccc(Cl)c4)cc3C2)o1: no (0)
N#Cc1ccccc1S(=O)(=O)N1CCN(Cc2c(O)ccc3ccccc23)CC1: yes (1)
COc1ccc(-c2noc(-c3cc4cc(Cl)ccc4oc3=O)n2)cc1OC: no (0)
CCc1nnc(NC(=O)COc2ccc3c(C)cc(=O)oc3c2)s1: no (0)
O=C(COc1ccc2c(c1)CCC2)N(Cc1nc2ccccc2c(=O)[nH]1)CC1CCCO1 (configuration not stated): no (0)
CC(=O)NC(NC(=S)Nc1c(C)n(C)n(-c2ccccc2)c1=O)C(Cl)(Cl)Cl (configuration not stated): no (0)
Cc1ccc(S(=O)(=O)/N=C(/NC(=S)Nc2c(C)n(C)n(-c3ccccc3)c2=O)c2ccccc2)cc1: yes (1)
Cc1cc2nc(/C(C#N)=C\c3ccc(OCc4ccc(F)cc4)cc3)[nH]c2cc1C: no (0)

*Q* Which result was noted for this compound in the test: `C=CCNc1nc(C)nc(OC)n1`
*A* no (0)

*Q* Field: outcome | Entry: Cc1cccc(NC2=NC(c3cccnc3)n3c(nc(C)cc3=O)N2)c1 (configuration not stated)
*A* no (0)

*Q* What outcome does the record of this test show for `CN1c2ccc(C=O)c3c(C=O)ccc(c23)N(C)C1(C)C` ?
*A* yes (1)

*Q* For this compound, state the assay outcome: `Cc1ccc(-c2nnc3c4ccccc4c(C)nn23)cc1NC(=O)c1cccc(Br)c1`
*A* no (0)

----------
# experimental-target: Polyunsaturated fatty acid lipoxygenase ALOX12 (Homo sapiens)
# method-summary: Primary qHTS assay for inhibitors of human arachidonate 12S-lipoxygenase (ALOX12): Round 2
# particulars: purified 12hLO, xylenol orange hydroperoxide absorbance; series mostly up to 108 µM
About 6,100 (1.1%) of roughly 580,000 compounds were called active. About 15% were inconclusive and are not listed. The call rests on the fitted dose curve; in most records, active means well fitted inhibition curve with a large enough effect; inconclusive means small, poorly fitted or top-dose-only effect, or another doubt; inactive means no such curve, though single readings can be large or run the other way. What follows is part of a selection rich in actives, with near analogues and random picks from the rest.
API: response.call in active, inactive

O=C(CSc1nc2ccc(NC(=O)c3ccc(F)cc3)cc2s1)NC1CCCCC1: active

*Q* Call for entry `CCN(CC)S(=O)(=O)c1ccc2c(c1)c(=O)n(CC(=O)N1CCCCCC1)c(=O)n2C` :
*A* inactive

*Q* What outcome does the record of this test show for `Cc1ccc(S(=O)(=O)N(CC(=O)Nc2cccnc2)c2ccc(Br)cc2)cc1` ?
*A* active
